Hello, the source for this data is ChEMBL document CHEMBL2069259, in case you need it.

# Experimental target: CYP2C9 (Homo sapiens, UniProt P11712)
# Sequence (P11712 whole entry): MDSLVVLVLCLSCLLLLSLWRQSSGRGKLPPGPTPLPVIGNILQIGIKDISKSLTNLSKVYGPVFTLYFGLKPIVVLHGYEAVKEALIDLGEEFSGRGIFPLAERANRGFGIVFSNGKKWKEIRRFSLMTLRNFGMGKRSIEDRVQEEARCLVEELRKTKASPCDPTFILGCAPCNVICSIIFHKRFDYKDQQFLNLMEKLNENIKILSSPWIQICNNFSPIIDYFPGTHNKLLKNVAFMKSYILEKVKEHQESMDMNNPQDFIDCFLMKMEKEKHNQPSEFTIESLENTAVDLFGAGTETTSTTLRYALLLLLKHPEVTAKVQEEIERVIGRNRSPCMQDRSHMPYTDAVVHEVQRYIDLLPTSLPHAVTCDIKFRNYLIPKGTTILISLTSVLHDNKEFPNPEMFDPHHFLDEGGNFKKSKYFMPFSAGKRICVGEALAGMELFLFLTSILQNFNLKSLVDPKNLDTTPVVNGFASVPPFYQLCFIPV
# Assay name: Inhibition of human CYP2C9 assessed as ratio of IC50 in absence of NADPH to IC50 for presence of NADPH using 7-methoxy-4-trifluoromethylcoumarin-3-acetic acid as substrate after 30 mins
# Run parameters: probe 7-methoxy-4-trifluoromethylcoumarin-3-acetic acid
Starred links: 1 amine or outer side, 2 acyl side, 3 side chain; linkers in the order of their positions; H or OH if unused. Positions of bridges follow the written chain, without caps; N, C: chain ends. Non-standard residues stand in square brackets, D forms with d. Residues, ends and D or L forms follow the SMILES beside them. Chains are numbered I, II in the order given. Actinocin(9to1) = Cc1c2oc3c(C)ccc(C(=O)[*:1])c3nc-2c(C(=O)[*:2])c(N)c1=O; NMeV = CN[C@H](C(=O)O)C(C)C; Sar = CNCC(=O)O
Attribute measured: IC50 shift at 0.5 h
Keep the answer to the number alone.

**Q:** // IC50 shift at 0.5 h lookup, key: Cc1c2oc3c(C)ccc(C(=O)N[C@@H]4C(=O)N[C@H](C(C)C)C(=O)N5CCC[C@H]5C(=O)N(C)CC(=O)N(C)[C@@H](C(C)C)C(=O)O[C@@H]4C)c3nc-2c(C(=O)N[C@@H]2C(=O)N[C@H](C(C)C)C(=O)N3CCC[C@H]3C(=O)N(C)CC(=O)N(C)[C@@H](C(C)C)C(=O)O[C@@H]2C)c(N)c1=O [DACTINOMYCIN] (I: T[dV]P[Sar][NMeV] / II: T[dV]P[Sar][NMeV]; ester I:1-I:C, II:1-II:C; linker I:N-II:N via Actinocin(9to1))
**A:** 2
